Data credit: PubChem BioAssay

- test name: thallium flux activation in parental CHO cells, counter-screen for KCNQ1 potentiator project (AID 493006);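 on activation: fluorescence ratio of max minus min over baseline after K+ and Tl+ depolarization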
- test settings: parental CHO-K1 cells, FluxOR thallium flux, at 10 µM; hits give high values
The source made the active and inactive calls.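 How the source made its calls: active means duplicate-averaged activation above buffer control mean plus 5 SD of those controls; inactive means the rest.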
assay metric: activation

A selection of reference data follows.
{"compound": "CN(C)CCNc1nc2sc3c(c2c(=O)n1CCc1ccccc1)CCCCC3", "activation": "inactive"}
{"compound": "CCSC(=S)c1c(C)[nH]n(-c2ccccc2)c1=O", "activation": "164% (active)"}
{"compound": "CN=C1c2cc3cc(OC)ccc3n2CCN1Cc1ccccc1", "activation": "inactive"}
{"compound": "O=C(NC(=S)Nc1ccc(CN2CCOCC2)cc1)c1ccc(-c2cccc(Cl)c2)o1", "activation": "inactive"}
{"compound": "O=C(CN1CCCC1)Nc1ccc2c(c1)CCC2", "activation": "inactive"}
{"compound": "COc1ccc(NC(=O)C(=O)NNC(=O)c2cccs2)cc1", "activation": "177% (active)"}
{"compound": "CCOC(=O)c1nnn(CC(=O)Nc2cc(Cl)ccc2C)c1C(=O)OCC", "activation": "164% (active)"}
{"compound": "CCC1(c2ccc(Cl)cc2)NC(=S)N(c2ccc(C)cc2)N1 (stereo not given)", "activation": "574% (active)"}
{"compound": "COc1ccc(NS(=O)(=O)c2ccc(N/N=C(\\C)c3ccncc3)c([N+](=O)[O-])c2)cc1", "activation": "inactive"}
{"compound": "O=c1sc(N2CCN(c3ccccc3F)CC2)nc2ccsc12", "activation": "inactive"}

Note: attention shifts to another entry.
Field request: activation | item: CCC(=O)NNc1nc2c(Cl)cccc2s1 inactive

====

- system: Potassium voltage-gated channel subfamily KQT member 1 (Homo sapiens)
- test name: KCNQ1 potassium channel potentiators, confirmation, FluxOR thallium flux, CHO cells, duplicates (AID 493007);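 on potentiation: 0% = buffer-only wells and 100% = R-L3 activator control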
- test settings: KCNQ1 cell line, FluxOR thallium flux fluorescence, at 10 µM; hits give high values, % of reference activator effect, buffer zero
The source made the active and inactive calls.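 Rule for the calls: active = potentiation averaged over duplicate wells exceeding buffer-only control mean by more than 3 SD; inactive = the rest.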
assay metric: potentiation

A selection of reference data follows.
{"molecule": "CC(C)(C)c1cc(C(=O)NNC(=O)c2ccc(C(F)(F)F)cc2)no1", "system": "Potassium voltage-gated channel subfamily KQT member 1 (Homo sapiens)", "potentiation": "32% (active)"}
{"molecule": "Cn1c(=O)c2c(SC3CCCC3)nc(C3CC3)nc2n(C)c1=O", "system": "Potassium voltage-gated channel subfamily KQT member 1 (Homo sapiens)", "potentiation": "inactive"}
{"molecule": "COC(=O)CSc1nc(NC(C)C)nc(N(C)C)n1", "system": "Potassium voltage-gated channel subfamily KQT member 1 (Homo sapiens)", "potentiation": "inactive"}
{"molecule": "O=C(CCC(=O)N1CCOc2ccc(Cl)cc21)NCCCN1CCN(c2ccccc2F)CC1", "system": "Potassium voltage-gated channel subfamily KQT member 1 (Homo sapiens)", "potentiation": "inactive"}

Field request: potentiation | item: CC(C)(C)n1nnnc1C(c1cc2cc3c(cc2[nH]c1=O)OCCO3)N1CCSCC1 (stereo not given) inactive

====

- system: Potassium voltage-gated channel subfamily KQT member 1 (Homo sapiens) (UniProt P51787)
- Sequence (P51787 whole entry, looked up): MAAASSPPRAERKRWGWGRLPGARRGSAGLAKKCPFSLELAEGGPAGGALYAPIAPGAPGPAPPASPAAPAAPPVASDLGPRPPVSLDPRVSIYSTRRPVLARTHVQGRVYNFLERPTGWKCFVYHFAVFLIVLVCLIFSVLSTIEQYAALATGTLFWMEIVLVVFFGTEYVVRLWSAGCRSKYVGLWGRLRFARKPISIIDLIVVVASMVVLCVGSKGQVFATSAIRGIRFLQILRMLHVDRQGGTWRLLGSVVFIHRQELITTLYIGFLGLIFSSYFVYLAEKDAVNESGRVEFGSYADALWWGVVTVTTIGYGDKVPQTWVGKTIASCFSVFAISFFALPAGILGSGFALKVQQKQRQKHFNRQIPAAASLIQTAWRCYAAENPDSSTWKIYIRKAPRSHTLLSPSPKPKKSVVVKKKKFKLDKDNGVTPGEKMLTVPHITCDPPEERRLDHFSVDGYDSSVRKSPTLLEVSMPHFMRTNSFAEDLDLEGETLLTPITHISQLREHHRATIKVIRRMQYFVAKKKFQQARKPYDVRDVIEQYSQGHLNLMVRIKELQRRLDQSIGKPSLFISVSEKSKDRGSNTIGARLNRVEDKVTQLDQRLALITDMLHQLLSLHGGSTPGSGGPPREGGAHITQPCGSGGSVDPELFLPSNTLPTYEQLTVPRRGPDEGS
- test name: KCNQ1 potassium channel potentiators, confirmation, FluxOR thallium flux, CHO cells, duplicates (AID 493007)
- test settings: KCNQ1 cell line, FluxOR thallium flux fluorescence, at 10 µM, % of reference activator effect, buffer zero
Calls of active or inactive are those of the source.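 The calls were made as follows: active = potentiation averaged over duplicate wells exceeding buffer-only control mean by more than 3 SD; inactive = the rest.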
One label from this list, please: t = active, f = inactive

{"compound": "CC12CCC(C/C1=N\\N=C1\\NC(=O)/C(=C\\c3ccc(Cl)cc3)S1)C2(C)C (stereo unspecified)", "class name": "t"}
{"compound": "O=C(Nc1cccnc1)NC1CCCCC1", "class name": "f"}
{"compound": "CC(C)C1=NN(C(=O)c2ccccc2)C(O)(C(C)(C)C)C1 (stereo unspecified)", "class name": "f"}
{"compound": "CN(C)CCCn1c(=O)n(C2CCCCC2)c(=O)c2c3c(sc21)CCCCC3", "class name": "t"}
{"compound": "COc1ccc(O)c(C(=O)c2cnn(-c3ccc(Cl)cc3)c2)c1", "class name": "f"}

Outcome? Cc1cccc(Nc2ccccc2C(=O)OCC(=O)N(C)C2CCS(=O)(=O)C2)c1C (stereo unspecified) f

Now the same for CCOC(=O)c1cnc2c(C(=O)OC)cccc2c1NCCN1CCOCC1 f

Now the same for Cc1ccsc1/C=N/Nc1nc2ccccc2s1 f

Now the same for Nc1nc(NCc2ccco2)nc(NC2CCCCC2)c1[N+](=O)[O-] f

Now the same for COc1ccc(CN2C(=O)C(O)(CC(=O)c3ccc4c(c3)OCO4)c3ccccc32)cc1OC (stereo unspecified) f

Now the same for COC(=O)c1c(NS(=O)(=O)Cc2ccccc2)sc2c1CCCC2 t
